# Test system: CFTR ΔF508 mutant (Homo sapiens, UniProt P13569, DEL508-508)
# Sequence (P13569 with tags, fused parts or gaps DEL508-508): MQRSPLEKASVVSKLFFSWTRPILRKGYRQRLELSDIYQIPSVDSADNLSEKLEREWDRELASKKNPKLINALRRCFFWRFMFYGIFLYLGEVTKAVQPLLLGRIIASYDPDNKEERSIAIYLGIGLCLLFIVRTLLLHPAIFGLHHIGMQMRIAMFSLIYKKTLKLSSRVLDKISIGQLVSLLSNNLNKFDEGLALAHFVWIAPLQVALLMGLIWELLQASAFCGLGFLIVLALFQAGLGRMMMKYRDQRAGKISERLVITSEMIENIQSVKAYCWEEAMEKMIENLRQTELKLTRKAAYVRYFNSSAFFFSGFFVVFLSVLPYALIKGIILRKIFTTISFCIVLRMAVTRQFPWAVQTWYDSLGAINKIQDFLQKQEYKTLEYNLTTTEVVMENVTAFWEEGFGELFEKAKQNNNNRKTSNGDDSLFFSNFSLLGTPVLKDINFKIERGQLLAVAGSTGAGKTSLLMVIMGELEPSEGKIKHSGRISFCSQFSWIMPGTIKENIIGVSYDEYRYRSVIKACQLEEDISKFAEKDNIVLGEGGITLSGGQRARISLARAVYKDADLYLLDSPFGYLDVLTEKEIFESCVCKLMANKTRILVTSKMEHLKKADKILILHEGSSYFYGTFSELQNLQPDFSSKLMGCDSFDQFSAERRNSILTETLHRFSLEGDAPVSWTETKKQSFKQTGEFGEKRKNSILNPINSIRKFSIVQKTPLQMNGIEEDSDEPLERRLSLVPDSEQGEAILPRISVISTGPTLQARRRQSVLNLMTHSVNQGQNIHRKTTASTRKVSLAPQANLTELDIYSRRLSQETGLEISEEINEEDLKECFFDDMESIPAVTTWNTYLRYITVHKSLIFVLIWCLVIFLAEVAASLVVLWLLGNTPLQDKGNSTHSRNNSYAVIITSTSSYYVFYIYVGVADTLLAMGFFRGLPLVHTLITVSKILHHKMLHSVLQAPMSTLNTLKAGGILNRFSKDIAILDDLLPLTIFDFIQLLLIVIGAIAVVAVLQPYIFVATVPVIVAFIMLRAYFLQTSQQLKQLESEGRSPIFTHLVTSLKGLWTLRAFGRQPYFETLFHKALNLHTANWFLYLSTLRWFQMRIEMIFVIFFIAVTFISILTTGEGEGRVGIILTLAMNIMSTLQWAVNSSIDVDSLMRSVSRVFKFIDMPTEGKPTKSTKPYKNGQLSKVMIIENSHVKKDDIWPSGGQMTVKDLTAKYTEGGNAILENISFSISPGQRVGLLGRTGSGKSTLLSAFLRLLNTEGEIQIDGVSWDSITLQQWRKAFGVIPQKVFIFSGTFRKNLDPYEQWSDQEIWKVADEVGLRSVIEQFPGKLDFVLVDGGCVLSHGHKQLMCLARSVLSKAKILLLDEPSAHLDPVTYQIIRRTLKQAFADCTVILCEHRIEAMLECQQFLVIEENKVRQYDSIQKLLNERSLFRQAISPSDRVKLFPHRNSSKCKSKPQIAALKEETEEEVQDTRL
# Assay info: YFP-halide influx assay for the CFTR-ΔF508 mutation (CFBE41o- cells)
# Condition info: forskolin 10.67 μM, from (1−F/F0) vs concentration plot
Measured endpoint: EC50 (µM)
The reply should be a number in µM, with the unit left off.

> print(dat)
                                    compound  observed
 1  CN(Cc1ccc(F)cc1)S(=O)(=O)c1cnc(C(=O)NCC(O)C(F)(F)F)c(N)c1 (stereo not shown) [Compound 187]    0.0028
 2  CC(C)C[C@H](NC(=O)c1ncc(S(=O)(=O)c2ccc(OC(F)(F)F)cc2)cc1N)C(N)=O [Compound 56]     0.369
 3  CC1CC(C)CN(S(=O)(=O)c2cnc(C(=O)NCC(O)C(F)(F)F)c(N)c2)C1 (stereo not shown) [Compound 185]    0.0029
 4  CC(C)OCC(O)CNC(=O)c1ncc(S(=O)(=O)c2ccc(C(F)(F)F)cc2)cc1N (stereo not shown) [Compound 92]    0.0072
 5  Nc1cc(S(=O)(=O)c2ccc(F)cc2)cnc1C(=O)NC[C@H](O)C(F)(F)F [Compound 25]    0.0081
 6  COCCC(C)(O)CNC(=O)c1ncc(S(=O)(=O)c2ccc(C(F)(F)F)cc2)cc1N (stereo not shown) [Compound 167]    0.0417
 7  CC(C)(O)C1CN(C(=O)c2ncc(S(=O)(=O)c3ccc(OC(F)(F)F)cc3F)cc2N)C1 [Compound 174]    0.0059
 8  C[C@H](O)CNC(=O)c1ncc(S(=O)(=O)c2ccc(C(F)(F)F)cc2)cc1N [Compound 100]    0.0129
 9  Nc1cc(S(=O)(=O)c2ccc(OC(F)(F)F)cc2)cnc1C(=O)N[C@@H]1CCOC1 [Compound 128]    0.0852
10  C[C@H](O)CNC(=O)c1nc(OCCN(C)C)c(S(=O)(=O)c2ccc(OC(F)(F)F)cc2)cc1N [Compound 289]     0.245

Item Nc1cc(S(=O)(=O)c2ccc(OC(F)(F)F)cc2)cnc1C(=O)NCC(O)C1CCOC1 (stereo not shown) [Compound 73] ; assay system CFTR ΔF508 mutant (Homo sapiens, UniProt P13569, DEL508-508); EC50 reported as 0.0814

Item CC1CN(C(=O)c2ncc(S(=O)(=O)c3ccc(OC(F)(F)F)cc3)cc2N)C1 [Compound 126] ; assay system CFTR ΔF508 mutant (Homo sapiens, UniProt P13569, DEL508-508); EC50 reported as 0.0649

Item C[C@H](O)CNC(=O)c1ncc(S(=O)(=O)c2ccc(OC(F)(F)F)cc2)cc1N [Compound 21] ; assay system CFTR ΔF508 mutant (Homo sapiens, UniProt P13569, DEL508-508); EC50 reported as 0.0149

Item CC1CCCN(S(=O)(=O)c2cnc(C(=O)NCC(O)C(F)(F)F)c(N)c2)C1 (stereo not shown) [Compound 182] ; assay system CFTR ΔF508 mutant (Homo sapiens, UniProt P13569, DEL508-508); EC50 reported as 0.0047

###

# Test system: CFTR ΔF508 mutant (Homo sapiens, UniProt P13569, DEL508-508)
# Assay info: YFP-halide influx assay for the CFTR-ΔF508 mutation (CFBE41o- cells)
# Condition info: forskolin 10.67 μM, from (1−F/F0) vs concentration plot
Measured endpoint: EC50 (µM)
The reply should be a number in µM, with the unit left off.

Example compounds with recorded EC50:
> print(dat)
                                   compound                               test.system  measured.endpoint  unit.label  observed
1  COC[C@H](O)CNC(=O)c1ncc(S(=O)(=O)c2ccccc2)cc1N [Compound 296]  CFTR ΔF508 mutant (Homo sapiens, UniProt P13569, DEL508-508)               EC50          µM      0.04
2  Nc1cc(S(=O)(=O)c2ccc(OC(F)(F)F)cc2)cnc1C(=O)NCCO [Compound 14]  CFTR ΔF508 mutant (Homo sapiens, UniProt P13569, DEL508-508)               EC50          µM    0.0237
3  Nc1cc(S(=O)(=O)c2ccc(C(F)(F)F)cc2F)cnc1C(=O)NC[C@H]1CCOC1 [Compound 106]  CFTR ΔF508 mutant (Homo sapiens, UniProt P13569, DEL508-508)               EC50          µM    0.0195
4  Nc1cc(S(=O)(=O)c2ccc(OC(F)(F)F)cc2)cnc1C(=O)NC[C@H](O)C(F)(F)F [Compound 26]  CFTR ΔF508 mutant (Homo sapiens, UniProt P13569, DEL508-508)               EC50          µM    0.0022
5  Nc1cc(S(=O)(=O)c2ccc(C(F)(F)F)cc2)cnc1C(=O)NC[C@@H](O)COCC(F)(F)F [Compound 248]  CFTR ΔF508 mutant (Homo sapiens, UniProt P13569, DEL508-508)               EC50          µM     0.012
6  Nc1cc(S(=O)(=O)c2ccc(C(F)(F)F)cc2)cnc1C(=O)NCC(O)COCC(F)(F)F (centres unmarked) [Compound 201]  CFTR ΔF508 mutant (Homo sapiens, UniProt P13569, DEL508-508)               EC50          µM    0.0147

Record summary for CC(C)COCC(O)CNC(=O)c1ncc(S(=O)(=O)c2ccc(C(F)(F)F)cc2)cc1N (centres unmarked) [Compound 166] : reported EC50 = 0.0175

Record summary for Nc1cc(S(=O)(=O)c2ccccc2OC(F)(F)F)cnc1C(=O)N1CC(O)C1 [Compound 76] : reported EC50 = 0.0043
